Taken from patent US20070213359A1.

- testSystem: Ghrelin receptor (Homo sapiens, UniProt Q92847)
- Sequence (Q92847 whole entry): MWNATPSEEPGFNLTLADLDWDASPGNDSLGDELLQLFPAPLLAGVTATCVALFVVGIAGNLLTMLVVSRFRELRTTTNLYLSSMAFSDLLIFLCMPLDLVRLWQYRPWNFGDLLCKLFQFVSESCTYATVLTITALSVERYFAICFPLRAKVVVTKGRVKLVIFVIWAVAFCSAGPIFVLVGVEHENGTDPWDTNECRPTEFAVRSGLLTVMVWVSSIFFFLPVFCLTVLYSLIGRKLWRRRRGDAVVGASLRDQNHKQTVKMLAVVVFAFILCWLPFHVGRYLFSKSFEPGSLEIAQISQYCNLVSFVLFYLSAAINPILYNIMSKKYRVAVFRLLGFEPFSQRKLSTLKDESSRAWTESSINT
- assayExplanation: Receptor Selection and Amplification Technology (R-SAT) assay
- Assay type: cell-based
- Set-up: expressed in transfected cells; host or cells: NIH3T3
- experimentalSetup: negative logarithm of ligand concentration causing 50% inhibition of constitutive receptor response; transfected NIH3T3 cells; '—' not defined (nd used separately); read-out: RSAT pIC50 (converted)
Just a reminder that ties go to class 0: only IC50 strictly below 300 nM counts as class 1.

Solved entries:
| molecule | classAssignment |
| --- | --- |
| CCCCC1CCN(CCCn2cc(C(C)=O)c3cccc(Cl)c32)CC1 | class 0 |
| CC(=O)c1cn(CCCN2CCN(c3ncc(C(F)(F)F)cc3Cl)CC2)c2ncccc12 | class 1 |
| CCCOC1CCN(CCCn2cc(C(=O)CC(C)C)c3ccccc32)CC1 | class 1 |
| CC(=O)c1cn(CCCN2C3CCC2CC(OCC2CC2)C3)c2ccc(Br)cc12 (stereo not shown) | class 1 |
| COc1ccc2c(c1)c(C(C)=O)cn2CCCN1CCC(Oc2ccccc2Cl)CC1 | class 0 |
| CCCCC(=O)c1cn(CCCN2CCC(Oc3ccc(F)cc3)CC2)c2ccc(OC)cc12 | class 1 |
| COc1ccccc1C1CCN(CCCn2cc(C(C)=O)c3cccc(C)c32)CC1 | class 1 |
| COc1ccc2c(c1)c(C(C)=O)cn2CCCN1CCC(C(=O)c2ccccc2)CC1 | class 0 |
| CC(=O)c1cn(CCCN2CCC(Oc3ccc(F)cc3)CC2)c2ccc(Br)cc12 | class 1 |

Let's switch to this molecule now.
[in] Quick check: IC50 of CC(c1ccccc1)N1CCN(CCCn2cc(C(=O)C(F)(F)F)c3ccccc32)CC1 (stereo not shown) under 300 nM?
[out] class 1

* * *

- testSystem: Ghrelin receptor (Homo sapiens)
- assayExplanation: Receptor Selection and Amplification Technology (R-SAT) assay
- Type: cell-based
- Parameters: expressed in transfected cells; host or cells: NIH3T3
- experimentalSetup: negative logarithm of ligand concentration causing 50% inhibition of constitutive receptor response; transfected NIH3T3 cells; '—' not defined (nd used separately); read-out: RSAT pIC50 (converted)
Just a reminder that ties go to Condition not met: only IC50 strictly below 0.3 µM counts as Condition met.

| compound | classAssignment |
| --- | --- |
| CC(=O)c1cn(CCCN2C3CCC2CC(CCc2ccccc2)C3)c2c(C#N)cccc12 (centres unmarked) | Condition met |
| COc1cccc2c(C(=O)NCC(C)C)cn(CCCN3CCC(Oc4ccccc4Cl)CC3)c12 | Condition met |
| COc1cccc2c(C(C)=O)cn(CCCN3CCC(C(=O)c4ccccc4)CC3)c12 | Condition met |

[in] Quick check: IC50 of COc1cccc2c(C(C)=O)cn(CCCN3CCN(c4cccc(Cl)c4)CC3)c12 under 0.3 µM?
[out] Condition met

[in] Quick check: IC50 of CC(=O)c1cn(CCCN2CCC(Oc3cccc(Cl)c3)CC2)c2c(Br)cccc12 under 0.3 µM?
[out] Condition met

[in] Quick check: IC50 of CC(=O)c1cn(CCCN2C3CCC2CC(Oc2ccc(Cl)cc2)C3)c2cc(Br)ccc12 (centres unmarked) under 0.3 µM?
[out] Condition not met

[in] Quick check: IC50 of COc1cccc2c(C(=O)NCc3cccc(Cl)c3)cn(CCCN3C4CCC3CC(Oc3ccc(Cl)cc3)C4)c12 (centres unmarked) under 0.3 µM?
[out] Condition met

[in] Quick check: IC50 of COc1ccc2c(C(C)=O)cn(CCCN3CCC(C(C)c4ccccc4)CC3)c2c1 (centres unmarked) under 0.3 µM?
[out] Condition not met

[in] Quick check: IC50 of COc1cccc2c(C(C)=O)cn(CC(C)CN3CCN(c4ncc(C(F)(F)F)cc4Cl)CC3)c12 (centres unmarked) under 0.3 µM?
[out] Condition met
